- Tested on: 409B2 hiPSC (iCRISPR Cas9, FRMD7 editing)
- Test details: MMEJ-attributed deletion frequency relative to solvent control (fold (ratio to mock)); higher = more MMEJ outcomes
- Condition label: 2000 nM
Where a name gives a salt, the structure may show the parent alone.
Measurement kind: MMEJ-attributed deletion frequency

                                   compound                            assayed_system                    measurement_kind  quantitative_result
0  CC(=O)c1c(C)c2cnc(Nc3ccc(N4CCNCC4)cn3)nc2n(C2CCCC2)c1=O (in DMSO)  409B2 hiPSC (iCRISPR Cas9, FRMD7 editing)  MMEJ-attributed deletion frequency                0.907
1  O=C(c1cc(Cc2n[nH]c(=O)c3ccccc23)ccc1F)N1CCN(C(=O)C2CC2)CC1 (in DMSO)  409B2 hiPSC (iCRISPR Cas9, FRMD7 editing)  MMEJ-attributed deletion frequency                0.614
2  CCN1CCN(Cc2ccc(Nc3ncc(F)c(-c4cc(F)c5nc(C)n(C(C)C)c5c4)n3)nc2)CC1 (in EtOH)  409B2 hiPSC (iCRISPR Cas9, FRMD7 editing)  MMEJ-attributed deletion frequency                0.565
3  CCCCc1oc2ccc(NS(C)(=O)=O)cc2c1C(=O)c1ccc(OCCCN(CCCC)CCCC)cc1 [Dronedarone HCl] (in DMSO)  409B2 hiPSC (iCRISPR Cas9, FRMD7 editing)  MMEJ-attributed deletion frequency                0.923
4  O[C@@H]1[C@H](O)[C@H](O)CO[C@H]1O [D-Ribose] (in DMSO)  409B2 hiPSC (iCRISPR Cas9, FRMD7 editing)  MMEJ-attributed deletion frequency                 1.01
5  CN(C)C(=O)C(CCN1CCC(O)(c2ccc(Cl)cc2)CC1)(c1ccccc1)c1ccccc1 [Loperamide HCl] (in DMSO)  409B2 hiPSC (iCRISPR Cas9, FRMD7 editing)  MMEJ-attributed deletion frequency                 1.31
6  Nc1ccn(C[C@@H](CO)OCP(=O)(O)O)c(=O)n1 [Cidofovir] (in H2O)  409B2 hiPSC (iCRISPR Cas9, FRMD7 editing)  MMEJ-attributed deletion frequency                0.789
7  CC(C)/N=c1\cc2n(-c3ccc(Cl)cc3)c3ccccc3nc-2cc1Nc1ccc(Cl)cc1 [Clofazimine] (in DMSO)  409B2 hiPSC (iCRISPR Cas9, FRMD7 editing)  MMEJ-attributed deletion frequency                0.957

---

- Tested on: 409B2 hiPSC (iCRISPR Cas9, FRMD7 editing)
- Test details: NHEJ-attributed indel frequency relative to solvent control (fold (ratio to mock)); higher = more NHEJ outcomes
- Condition label: 50000 nM
Where a name gives a salt, the structure may show the parent alone.
Using NHEJ-attributed indel frequency as the sorting value, the categories are low class = under 0.5, middle class = from 0.5 up to 1, high class = 1 and over

Molecule	Qualitative label
O=C1CN(/N=C/c2ccc(-c3ccc([N+](=O)[O-])cc3)o2)C(=O)N1 [Dantrolene, sodium salt] (in DMSO)	high class
CCN1CCN(Cc2ccc(Nc3ncc(F)c(-c4cc(F)c5nc(C)n(C(C)C)c5c4)n3)nc2)CC1 (in EtOH)	low class
CNCC[C@H](Oc1cccc2ccccc12)c1cccs1 [Duloxetine HCl] (in DMSO)	middle class
CC(=O)c1c(C)c2cnc(Nc3ccc(N4CCNCC4)cn3)nc2n(C2CCCC2)c1=O (in DMSO)	low class
CC(CCc1ccccc1)NCC(O)c1ccc(O)c(C(N)=O)c1 (centres undefined) [Labetalol HCl] (in DMSO)	high class
C[C@@H]1O[C@@H](O[C@H]2C[C@@H](O)[C@]3(CO)[C@H]4[C@H](O)C[C@]5(C)[C@@H](C6=CC(=O)OC6)CC[C@]5(O)[C@@H]4CC[C@]3(O)C2)[C@H](O)[C@H](O)[C@H]1O [Ouabain Octahydrate] (in H2O)	middle class

---

- Tested on: 409B2 hiPSC (iCRISPR Cas9, FRMD7 editing)
- Test details: MMEJ-attributed deletion frequency relative to solvent control (fold (ratio to mock)); higher = more MMEJ outcomes
- Condition label: 50000 nM
Structures can show the parent of a compound that is named as a salt.

Compound	MMEJ-attributed deletion frequency
C[C@@H]1O[C@@H](O[C@H]2C[C@@H](O)[C@]3(CO)[C@H]4[C@H](O)C[C@]5(C)[C@@H](C6=CC(=O)OC6)CC[C@]5(O)[C@@H]4CC[C@]3(O)C2)[C@H](O)[C@H](O)[C@H]1O [Ouabain Octahydrate] (in H2O)	1.87
CC(=O)c1c(C)c2cnc(Nc3ccc(N4CCNCC4)cn3)nc2n(C2CCCC2)c1=O (in DMSO)	0.244
CCN1CCC[C@H]1CNC(=O)c1cc(S(N)(=O)=O)ccc1OC [Levosulpiride] (in DMSO)	1
Nc1ccn(C[C@@H](CO)OCP(=O)(O)O)c(=O)n1 [Cidofovir] (in H2O)	0.968
CN(C)C(=O)Oc1cccc([N+](C)(C)C)c1 [Hodostin] (in DMSO)	1.05
CC(CCc1ccccc1)NCC(O)c1ccc(O)c(C(N)=O)c1 (stereo not drawn) [Labetalol HCl] (in DMSO)	1.25
CNCC[C@H](Oc1cccc2ccccc12)c1cccs1 [Duloxetine HCl] (in DMSO)	1.42
O=C1CN(/N=C/c2ccc(-c3ccc([N+](=O)[O-])cc3)o2)C(=O)N1 [Dantrolene, sodium salt] (in DMSO)	0.979
O=[N+]([O-])O[C@@H]1CO[C@H]2[C@@H]1OC[C@@H]2O [Isosorbide 5-mononitrate] (in DMSO)	0.955
CN(C)C(=O)C(CCN1CCC(O)(c2ccc(Cl)cc2)CC1)(c1ccccc1)c1ccccc1 [Loperamide HCl] (in DMSO)	0.224
CCN1CCN(Cc2ccc(Nc3ncc(F)c(-c4cc(F)c5nc(C)n(C(C)C)c5c4)n3)nc2)CC1 (in EtOH)	0.0743
Cc1ccc(NC(=O)c2ccc(CN3CC[C@H](N(C)C)C3)c(C(F)(F)F)c2)cc1Nc1nccc(-c2cncnc2)n1 [Bafetinib (INNO-406)] (in DMSO)	0.621
C[C@]12CC[C@@H]3c4ccc(O)cc4CC[C@H]3[C@@H]1C[C@@H](O)[C@@H]2O [Estriol] (in DMSO)	0.971

---

As shown below, each of these compounds has a reported cell survival value.
- Test system: 409B2 hiPSC (iCRISPR Cas9, FRMD7 editing)
- Test details: cell survival relative to solvent control (fold (ratio to mock)); higher = more surviving cells
- Condition label: 2 nM
Structures can show the parent of a compound that is named as a salt.

Compound	cell survival
CC[C@@]1(O)C(=O)OCc2c1cc1n(c2=O)Cc2cc3c(CN(C)C)c(O)ccc3nc2-1 [Topotecan] (in DMSO)	0.777
Cc1ccc(C(=O)N(CCCN)[C@@H](c2nc3cc(Cl)ccc3c(=O)n2Cc2ccccc2)C(C)C)cc1 (in DMSO)	1.2
CC[C@]1(O)C[C@@H]2CN(CCc3c([nH]c4ccccc34)[C@@](C(=O)OC)(c3cc4c(cc3OC)N(C)[C@H]3[C@@](O)(C(=O)OC)[C@H](OC(C)=O)[C@]5(CC)C=CCN6CC[C@]43[C@@H]65)C2)C1 [Vinblastine sulfate] (in DMSO)	0.687
CC[C@]1(O)C[C@@H]2CN(CCc3c([nH]c4ccccc34)[C@@](C(=O)OC)(c3cc4c(cc3OC)N(C)[C@H]3[C@@](O)(C(=O)OC)[C@H](OC(C)=O)[C@]5(CC)C=CCN6CC[C@]43[C@@H]65)C2)C1 [vinblastine] (in DMSO)	0.524
CC[N+](CC)(CC)CC [Tetraethylammonium chloride] (in EtOH)	0.979

---

- Test system: 409B2 hiPSC (iCRISPR Cas9, FRMD7 editing)
- Test details: HDR (precise edit) frequency relative to solvent control (fold (ratio to mock)); higher = more homology-directed repair outcomes
- Condition label: 20000 nM
Structures can show the parent of a compound that is named as a salt.
Measurement kind: HDR

>>> df
                                   compound  quantitative_result
0  O=[N+]([O-])O[C@@H]1CO[C@H]2[C@@H]1OC[C@@H]2O [Isosorbide 5-mononitrate] (in DMSO)                 1.07
1  Cc1ccc(NC(=O)c2ccc(CN3CC[C@H](N(C)C)C3)c(C(F)(F)F)c2)cc1Nc1nccc(-c2cncnc2)n1 [Bafetinib (INNO-406)] (in DMSO)                0.775
2  CC(CCc1ccccc1)NCC(O)c1ccc(O)c(C(N)=O)c1 (stereo unspecified) [Labetalol HCl] (in DMSO)                0.757
3  O=C1CN(/N=C/c2ccc(-c3ccc([N+](=O)[O-])cc3)o2)C(=O)N1 [Dantrolene, sodium salt] (in DMSO)                0.547
4  CNCC[C@H](Oc1cccc2ccccc12)c1cccs1 [Duloxetine HCl] (in DMSO)                 0.88
5  CC(=O)c1c(C)c2cnc(Nc3ccc(N4CCNCC4)cn3)nc2n(C2CCCC2)c1=O (in DMSO)               0.0501
